Item-by-item account of TGI
# System: UACC-257 melanoma
# assay_notes: NCI tumour cell line growth inhibition, 48 h
assay_readout: TGI

molecule="N#CC1CNC(N)NC1N (stereo not drawn)" assay_readout=TGI reported_result="> 100 µM"
molecule="CSc1ncc2c(n1)-c1ccccc1OC2N1CCCCC1 (stereo not drawn)" assay_readout=TGI reported_result="> 100 µM"
molecule=O=C(NC(=S)Nc1ccccc1)c1ccc([N+](=O)[O-])cc1 assay_readout=TGI reported_result="> 100 µM"
molecule=O=C1CCCCCCCCCCC(=O)N2CCOCCOCCN1Cc1cccc(n1)C2 assay_readout=TGI reported_result="> 100 µM"
molecule=COc1ccc(-c2cc(=O)c3c(OC)cccc3o2)c(OC)c1OC assay_readout=TGI reported_result="> 100 µM"
molecule="Cc1nn(C2OC(CO)C(O)C(F)C2O)c(=O)[nH]c1=O (stereo not drawn)" assay_readout=TGI reported_result="> 100 µM"
molecule="Cc1cc(O)c(C=O)c2c1C(=O)Oc1c(CO)c(O)c3c(c1O2)C(O)OC3=O (stereo not drawn)" assay_readout=TGI reported_result="> 100 µM"
molecule=COC(=O)c1cc(OC(C)=O)c2c(OC)ccc(OC)c2c1 assay_readout=TGI reported_result="> 100 µM"
molecule=Nc1ccc(C(c2ccccc2)(c2ccccc2)c2ccccc2)cc1 assay_readout=TGI reported_result="> 100 µM"
molecule=COc1ccc(C(=O)c2cc(OC)c3c(c2)OCO3)cc1O assay_readout=TGI reported_result="> 79.5 µM"
molecule=O=[N+]([O-])c1ccc(C2=NN(c3ccccc3)C[N+](c3ccc(Br)cc3)=N2)cc1 assay_readout=TGI reported_result="> 100 µM"
molecule="O=C(O)CNC(=O)C(CS)Cc1ccccc1 (stereo not drawn)" assay_readout=TGI reported_result="> 25 µM"
molecule=O=C1/C(=C/c2cc3c(=O)c4ccccc4sc3s2)NC(=S)N1c1ccccc1 assay_readout=TGI reported_result="> 100 µM"
